target: Recombinant GST-TAG-MASTL (Homo sapiens, UniProt Q96GX5); construct: GST; purchased Thermo Fisher Scientific; assay: HTRF-based kinase assay (HTRF KinEASE assay kit); assay type: biochemical; settings: compound 1 µM; read-out: MASTL activity (%) HTRF (1 µM)
Sequence (Q96GX5 whole entry): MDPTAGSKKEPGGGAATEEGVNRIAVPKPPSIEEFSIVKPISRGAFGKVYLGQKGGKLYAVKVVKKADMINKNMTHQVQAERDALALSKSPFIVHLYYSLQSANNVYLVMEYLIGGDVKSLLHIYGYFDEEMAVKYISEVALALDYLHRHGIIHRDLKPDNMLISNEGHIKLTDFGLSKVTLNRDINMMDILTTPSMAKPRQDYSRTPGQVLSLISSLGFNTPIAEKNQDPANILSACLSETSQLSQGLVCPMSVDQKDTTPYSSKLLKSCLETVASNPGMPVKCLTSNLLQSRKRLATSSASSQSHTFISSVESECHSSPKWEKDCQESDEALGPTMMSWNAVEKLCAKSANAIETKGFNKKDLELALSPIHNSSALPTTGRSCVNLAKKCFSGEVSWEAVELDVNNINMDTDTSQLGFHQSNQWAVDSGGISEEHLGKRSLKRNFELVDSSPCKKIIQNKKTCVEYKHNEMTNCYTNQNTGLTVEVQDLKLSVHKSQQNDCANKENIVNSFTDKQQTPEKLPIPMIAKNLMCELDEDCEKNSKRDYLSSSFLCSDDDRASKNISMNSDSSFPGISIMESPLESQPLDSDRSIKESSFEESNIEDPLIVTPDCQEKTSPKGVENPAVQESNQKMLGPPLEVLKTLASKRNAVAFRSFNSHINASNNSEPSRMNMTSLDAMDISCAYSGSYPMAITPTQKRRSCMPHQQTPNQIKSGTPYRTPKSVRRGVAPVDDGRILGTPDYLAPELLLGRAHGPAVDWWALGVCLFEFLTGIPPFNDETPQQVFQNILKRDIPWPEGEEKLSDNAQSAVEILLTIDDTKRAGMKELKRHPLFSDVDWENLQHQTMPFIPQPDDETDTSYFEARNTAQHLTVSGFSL
Property label: activity at 1 µM (%)
Provide the reading as a plain figure in %.

Compound	activity at 1 µM [%]
c1ccc2c(Nc3cc(C4CC4)[nH]n3)nc(Nc3cnc4[nH]ccc4c3)nc2c1 [compound 4dg]	37.9
O=S(=O)(c1cccc(Cl)c1)N1CC2CC1CN2c1nc(Nc2cc(C3CC3)[nH]n2)c2ccccc2n1 (stereo not shown) [compound 15q]	49.2
CN(C)S(=O)(=O)c1ccc(Nc2nc(Nc3ccc(C#N)cc3)nc3ccccc23)cc1 [compound 25b]	91.6

Ask: Consider the compound Cc1cc(Nc2nc(N3CC4CC3CN4CC(C)C)nc3ccccc23)n[nH]1 (stereo not shown) [compound 27e] and give its measured activity at 1 µM.
Result: 67.4
